Test system: Saccharomyces cerevisiae
Assay: protein stability index of tFT-peptide fusion (C-terminal peptide) (PSI (0-1 scale)); higher = more stable (slower turnover)
Conditions: genetic background: wild type; temperature: 30 C
Can you tell me protein stability index for the items I'm about to list?
Reply with the value as a number alone.

Prompt: Lab request: please report protein stability index under test system Saccharomyces cerevisiae for PPPTHRDPLPTP
Completion: 0.684

Prompt: What reported protein stability index corresponds to PLPPPLLPRTRL on Saccharomyces cerevisiae?
Completion: 0.694

Prompt: What value of protein stability index on Saccharomyces cerevisiae does EGYTPETPCYQK have?
Completion: 0.688

Prompt: What protein stability index appears in the records for this sequence with Saccharomyces cerevisiae? RKKRNKTKIEKR
Completion: 0.719

Prompt: Observed protein stability index on Saccharomyces cerevisiae for PPLRPGLLYSPS , please.
Completion: 0.687

Prompt: Form field - read-out: protein stability index; system: Saccharomyces cerevisiae; submitted item: GWAVGVGGGRGR
Completion: 0.686

Prompt: Under Saccharomyces cerevisiae: protein stability index value of CNEKVNRNGYKR ?
Completion: 0.69

Prompt: Observed protein stability index on Saccharomyces cerevisiae for KQRQTKTIRGPR , please.
Completion: 0.672

Prompt: Form entry - test system: Saccharomyces cerevisiae; read-out: protein stability index; sequence: YINTKKKKINKT
Completion: 0.655

Prompt: Please state recorded protein stability index (tested on Saccharomyces cerevisiae) of GRPKNSYNQNSG
Completion: 0.747

Prompt: Enter reported protein stability index observed with Saccharomyces cerevisiae for TARPDKDYPRLA
Completion: 0.678

Prompt: Which measured protein stability index belongs to VVDIFLFFLFVC , tested on Saccharomyces cerevisiae?
Completion: 0.203

Prompt: Query the reported protein stability index for Saccharomyces cerevisiae; item: AVCWDVSRCLGL
Completion: 0.7

Prompt: Hi! What's the reported protein stability index for GKCFSFSFNCLH on Saccharomyces cerevisiae?
Completion: 0.521

Prompt: # returns recorded protein stability index (system: Saccharomyces cerevisiae) for WWGWGGVACLLL
Completion: 0.693

Prompt: Return protein stability index measured with Saccharomyces cerevisiae given this sequence: SSLTTCFLSFPP
Completion: 0.668

Prompt: // fetch Saccharomyces cerevisiae protein stability index for HRPSPSPSPPLP
Completion: 0.752

Prompt: Please provide the recorded protein stability index for IKKNKKKKNERK , tested on Saccharomyces cerevisiae.
Completion: 0.675

Prompt: Form entry - test system: Saccharomyces cerevisiae; read-out: protein stability index; sequence: GGVGSMITWRVG
Completion: 0.689

Prompt: I'm curious: which protein stability index was measured for VWCVWGVGGLWA tested on Saccharomyces cerevisiae?
Completion: 0.648

Prompt: Any idea what protein stability index came out for PSPPLPPPPSGP on Saccharomyces cerevisiae?
Completion: 0.677

Prompt: Observed protein stability index on Saccharomyces cerevisiae for LAPPYPSSASSH , please.
Completion: 0.688

Prompt: # value lookup — system Saccharomyces cerevisiae, readout protein stability index, item SSNRKLVRLASS
Completion: 0.69

Prompt: # returns recorded protein stability index (system: Saccharomyces cerevisiae) for PFIPRFFSPCPL
Completion: 0.673

Prompt: Record RFGWRRGRVGSS : what is its protein stability index with Saccharomyces cerevisiae?
Completion: 0.734

Prompt: I'm curious: which protein stability index was measured for VVGAALRDGPRE tested on Saccharomyces cerevisiae?
Completion: 0.71

Prompt: GET /values?readout=protein stability index&system=Saccharomyces cerevisiae&item= SPSSSPLSPFPL
Completion: 0.713

Prompt: Find protein stability index (Saccharomyces cerevisiae) for the entry TSIAKRNGLLPG
Completion: 0.719

Prompt: Param readout= protein stability index; system= Saccharomyces cerevisiae; entry= PSPPPLPPLPPF ; returns value.
Completion: 0.682

Prompt: # get_value(readout= protein stability index, system= Saccharomyces cerevisiae) for SRGRAGESRPRG
Completion: 0.712

Prompt: Entry LLLSALSRRPSF , system Saccharomyces cerevisiae: what protein stability index was measured?
Completion: 0.678

Prompt: Reported protein stability index for Saccharomyces cerevisiae, given FYFLFVFICLRV ?
Completion: 0.664

Prompt: Checklist item: protein stability index tested on Saccharomyces cerevisiae, entry GWGWDAVGVGGP , value?;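 note: PSI is a weighted mean of sequencing reads over stability bins, variants kept only with over 10 reads, mCherry proximal and sfGFP distal, peptide attached via GGGS linker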
Completion: 0.711

Prompt: Value wanted: protein stability index (Saccharomyces cerevisiae) of entry GYNLTNVIPGVG
Completion: 0.681
